Test system: m-IMCD3 cells
Test: Inhibition of PGE2-stimulated in vitro cyst formation in m-IMCD3 cells
Format: cell-based, mouse
Conditions: Mus musculus, mIMCD3, 144 h, 10 μM; mean cyst area, 100% for (DMSO + PGE2) and 0% for DMSO control; 6 days of culture; read-out: % Cyst area after incubation with 10 μM test compound
Measurement type: activity at 10 µM
Report the figure along with its unit, number first.

Smiles structure: CC(C)CC(=O)N1CCc2nc(N3C4CCC3CNC4)sc2C1
Measurement type: activity at 10 µM
Measured result: 0%
--
Smiles structure: CN1CC2CCC(C1)N2c1nc2c(s1)CN(C(=O)CC1CCCC1)CC2(C)C
Measurement type: activity at 10 µM
Measured result: -3%

input: So what's the measured activity at 10 µM for this one? CC1(C(=O)N2CCc3nc(N4C5CCC4CNC5)sc3C2)CCCC1
output: 1%

input: So what's the measured activity at 10 µM for this one? O=C(CC1CCC(F)(F)CC1)N1CCn2nc(N3C4CCC3CNC4)nc2C1
output: 6%

input: So what's the measured activity at 10 µM for this one? O=C(COc1ccnc(F)c1)N1CCc2nc(N3C4CCC3CNC4)sc2C1
output: 3%

input: So what's the measured activity at 10 µM for this one? COc1cc(F)ccc1OCC(=O)N1CCc2nc(N3C4CCC3CNC4)sc2C1
output: 2%

input: So what's the measured activity at 10 µM for this one? CN1CC2CCC(C1)N2c1nc2c(s1)CN(C(=O)CC1CCC(F)(F)CC1)C2
output: 1%

input: So what's the measured activity at 10 µM for this one? CC(C)(C(=O)N1CCc2nc(N3C4CCC3CNC4)sc2C1)C(F)(F)F
output: 1%

input: So what's the measured activity at 10 µM for this one? O=C(CCc1ccc(F)nc1)N1CCc2nc(N3C4CCC3CNC4)sc2C1
output: -4%

input: So what's the measured activity at 10 µM for this one? O=C(COC1CCCC1)N1CCc2nc(N3C4CCC3CNC4)sc2C1
output: -2%

input: So what's the measured activity at 10 µM for this one? O=C(NC1CCCCC1)N1CCc2nc(N3C4CCC3CNC4)sc2C1
output: -6%

input: So what's the measured activity at 10 µM for this one? O=C(CC(F)(F)F)N1CCc2nc(N3C4CCC3CNC4)sc2C1
output: 1%
